# MEASUREMENT TARGET: T1, human CD37 protein (human, UniProt P11049 1-281)
# T1 construct: Four-pass transmembrane tetraspanin
# T1 sequence: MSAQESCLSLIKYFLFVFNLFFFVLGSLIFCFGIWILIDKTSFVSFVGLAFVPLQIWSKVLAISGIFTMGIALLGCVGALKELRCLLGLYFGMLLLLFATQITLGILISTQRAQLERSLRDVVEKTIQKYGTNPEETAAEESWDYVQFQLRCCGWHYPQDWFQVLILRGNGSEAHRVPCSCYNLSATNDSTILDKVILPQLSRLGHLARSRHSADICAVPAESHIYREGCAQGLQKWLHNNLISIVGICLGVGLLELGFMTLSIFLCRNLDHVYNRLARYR
# ASSAY COMMENT: flow cytometry on OCI-LY7 cells, FITC anti-human IgG Fc secondary
MEASURED QUANTITY: binding result

[[record]]
binder = "hmAb-H11L11-DXd (antibody, V domains shown, drug linker on sulfhydryl groups of reduced interchain disulfide cysteines; positions not given; drug linker (maleimidocaproyl-GGFG-DXd, exatecan derivative) on sulfhydryl groups of reduced interchain disulfide cysteines by thioether bond; average number of conjugated drug molecules per antibody 7.4 to 7.7 (common procedure F); positions not given, also called hmAb-H11L11-ADC) VH: EVQLVQSGAEVKKPGASVKVSCKASGYSFTDYNMYWVRQAPGQSLEWMGYIDPYNGDTTYNQKFQGRVTITADTSTSTAYMELSSLRSEDTAVYYCARSPYGHYAMDYWGQGTLVTVSS VL: DIQMTQSPSSLSASVGDRVTITCKASQDVSTAVDWYQQKPGKAPKLLINWASTRHTGVPSRFSGSGSGTDFTLTISSLQPEDFATYYCRQHYSTPFTFGQGTKVEIKR"
measured_quantity = "binding result"
measured_result = "binds"

[[record]]
binder = "hmAb-H541L11 (antibody, human IgG1, kappa, V domains shown, Unconjugated humanized IgG1 kappa antibody; also called anti-CD37 humanized antibody having hmAb-H541 as a heavy chain and hmAb-L11 as a light chain) VH: EVQLVQSGAEVKKPGASVKVSCKASGYSFTDYNMYWVRQAPGQSLEWMGYIDPYNGDTTYNQKFQGRVTMTRDTSISTAYMELSRLRSDDTAVYYCARSPYGHYAMDYWGQGTTVTVSS VL: DIQMTQSPSSLSASVGDRVTITCKASQDVSTAVDWYQQKPGKAPKLLINWASTRHTGVPSRFSGSGSGTDFTLTISSLQPEDFATYYCRQHYSTPFTFGQGTKVEIKR"
measured_quantity = "binding result"
measured_result = "binds"

[[record]]
binder = "hmAb-H11L11 (antibody, human IgG1, kappa, V domains shown, Unconjugated humanized IgG1 kappa antibody derived from mouse HH1; also called anti-CD37 humanized antibody having hmAb-H11 as a heavy chain and hmAb-L11 as a light chain) VH: EVQLVQSGAEVKKPGASVKVSCKASGYSFTDYNMYWVRQAPGQSLEWMGYIDPYNGDTTYNQKFQGRVTITADTSTSTAYMELSSLRSEDTAVYYCARSPYGHYAMDYWGQGTLVTVSS VL: DIQMTQSPSSLSASVGDRVTITCKASQDVSTAVDWYQQKPGKAPKLLINWASTRHTGVPSRFSGSGSGTDFTLTISSLQPEDFATYYCRQHYSTPFTFGQGTKVEIKR"
measured_quantity = "binding result"
measured_result = "binds"

